Tested on: HepG2 (liver cancer)
Experiment: cells
Conditions: HepG2; 50% cell destroying lethal concentration
log10 LC50 by entry:
The common logarithm of LC50 in µg/mL is what is listed.

CC(C)=CCc1c2c(c(O)c3c1OC14C(=CC5CC1C(C)(C)OC4(CC=C(C)C(=O)O)C5=O)C3=O)C=CC(C)(C)O2 (centres unmarked) [TSB-2, isomorellic acid] : 1.52
CC(C)=CCCC1(C)C=Cc2c(O)c3c(c(CC=C(C)C)c2O1)OC12C(=CC4CC1C(C)(C)OC2(CC=C(C)C(=O)O)C4=O)C3=O (centres unmarked) : 0.28
CC(C)=CCc1c2c(c(O)c3c1OC14C(=CC5CC1C(C)(C)OC4(CC=C(C)C)C5=O)C3=O)C=CC(C)(C)O2 (centres unmarked) : 1.49
CC(C)=CCc1c2c(c(O)c3c1OC14C(=CC5CC1C(C)(C)OC4(CC=C(C)C(=O)O)C5=O)C3=O)C=CC(C)(C)O2 (centres unmarked) [TSB-7, morellic acid] : 0.59

// query Item CC(C)=CCc1c2c(c(O)c3c1OC14C(=CC5CC1C(C)(C)OC4(CC=C(C)CO)C5=O)C3=O)C=CC(C)(C)O2 (centres unmarked) with HepG2 (liver cancer) - log10 LC50?
// result 0.48

Data origin: patent EP1619195A2
